- Tested on: PPARg:RXRa 90nM:30nM, anti-RXR (NR concentration 90 nM, RXRa partner concentration 30 nM)
- experimental.details: PBM binding z-score (relative to random genomic background probes); higher = stronger binding; sequences stand for … in GC…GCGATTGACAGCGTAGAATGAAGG
parameter: PBM binding z-score

Sample TTACCAAGGTGAGCCGAGGTCGTTGATCCAACTC ; PBM binding z-score observed: 0.541

Sample TCTATTAGTTGAACGGCAACCGACGAGTCCGTTT ; PBM binding z-score observed: 2.83

Sample AATATAGGGTCATCGTAGGCCAGAGTACGCACAG ; PBM binding z-score observed: 5.37

Sample ATCGAAAGGTCGTGAGGTGAGTGTACAGAAAGGC ; PBM binding z-score observed: 3.32

Sample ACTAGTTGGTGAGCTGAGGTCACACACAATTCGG ; PBM binding z-score observed: 1.3

Sample CCTACTAGGCCATCAGGTCATTGATATCAACGTT ; PBM binding z-score observed: 3.5

Sample CGTCCAAGGTCCTAGGAGGTCAGTGAAGACAGAT ; PBM binding z-score observed: 0.21

Sample CAAACTAGTTCACCGGAAGGTCAAAGTCCGCATG ; PBM binding z-score observed: 1.95

Sample AGTCAAAGTTCATCTAGCTAACGTAAGATATGCT ; PBM binding z-score observed: 5.44

Sample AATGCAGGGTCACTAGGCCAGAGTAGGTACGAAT ; PBM binding z-score observed: 5.76

Sample TTACCAAGGTGAGCTCAGGTCGTTGATCCAACTC ; PBM binding z-score observed: -0.151

Sample ATATGTAGGTTAAGGGTCACTCAGGTTGGTTCGC ; PBM binding z-score observed: 11.2

Sample GGAACGAGAGCATTCGAGTTGATAGCATGGCGAT ; PBM binding z-score observed: -0.728

Sample CATCCAAGGTCAGAGAGGTCAGTGAATGCCGAGT ; PBM binding z-score observed: 2.83

Sample AATACAGGGTCACTACGCCAGAGTAGGTACGAAT ; PBM binding z-score observed: 3.89

Sample TGAATGAGGTTATAAGATCAGGGAACGTTGCAAA ; PBM binding z-score observed: 1.38

Sample TCATATAGGTACATGCTAGGTGAAAGTCCGATCT ; PBM binding z-score observed: 2.99

Sample GCGACTGGAGCATCAGCAGGTTACCATAACTTAA ; PBM binding z-score observed: -0.253

Sample CCTACAGGGCCACGAAAGGTCATTGATTCAGTGA ; PBM binding z-score observed: 2.22

Sample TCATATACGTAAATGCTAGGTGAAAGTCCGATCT ; PBM binding z-score observed: 2.66

Sample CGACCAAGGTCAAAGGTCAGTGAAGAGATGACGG ; PBM binding z-score observed: 10.4

Sample GCTAGCACGCCATTTGGGTCACTCAATGACGGGC ; PBM binding z-score observed: 0.152

Sample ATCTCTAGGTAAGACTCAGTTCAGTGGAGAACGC ; PBM binding z-score observed: 0.315

Sample TCGAGTAGATTACCAATGGGGCATTCAGCTTTCT ; PBM binding z-score observed: 0.435

Sample TGAATGAGGTGATAAGATCAGGGAACGTTGCAAA ; PBM binding z-score observed: 0.92

Sample TCTTGTAGCTCAAAGGTTAAGAAAGCCGAAGCCT ; PBM binding z-score observed: 6.1
